Cited source for all entries: the nanobody polyreactivity screen of Harvey et al. (2022)

ASSAY PROTOCOL: yeast display, Sf9 membrane polyspecificity reagent, FACS + sequencing; frameworks hold sequencing errors
PROPERTY MEASURED: polyreactivity (PSR sort gate)

Below are worked cases with known answers.
QVQLVESGGGLVQAGGSLRLSCAASGFIFWYNAMGWYRQAPGKERELVATISVASTYADSVKGRFTISRDNAKNTVYLQMNSLKPEDTAVYYCAADWAGWEGYRMDYWGQGTQVTVSS
low polyreactivity
QVQLVESGGGLVQAGGSRRLSCAASGSTFRYYAMGWYRQAPGKERELVAAISKRGGSTYYADSVKGRFTISRDNAKNTVYLQMNSLKPEDTAVYYCAAYGSVGLEYWGQGTQVTVSS
high polyreactivity
QVQLVESGGGLVQAGGSLRLSCAASGYIFLANAMGWYRQAPGKVRELVAAITSGGGGTYYADSVKGRFTFSRDNAKNTVYLQMNSLKPEDTAVYYCAADHGRDGSSFEYWGQGTQVTVSS
low polyreactivity
QVQLVESGGGLVQAGGSLRLSCAASGRMFSAYAMGWYRQAPGKERELVAAITSVGSTKYADSVKGRFTISRDNAKNTVYLQMNSLKPEDTAVYYCAAEYTRSFYIYYRFGYWGQGTQVTVSS
high polyreactivity
QVQLVESGGGLVQAGGSLRLSCAASGNTFKYYAMGWYRQAPGKERELVATISRTAGSTYYADSVKGRFTISRDNAKNTVYLQMNSLKPDDTAVYYCNKDRGHPFKYDYWGQGTQVTVSS
low polyreactivity
LVQLVESGGGLVQAGGSLRLSGAASGSPFRQNAMGWYRQAPGKERELVAAITWRGDNTYYADSVKGRFTISRDNAKKPVYFQRNSLKPDDTAVDYCAARWSYRLYWGYGYWGQGTEVTVSS
low polyreactivity
QVQLVESGGGLVQAGGSLRLSCAASGSIFKYYAMGWYRQAPGKERELVAAITTTGGITYYADSVNGRFTISRDNAKNTDYLQMISLKPEDTAVYYCNAYYPIRSSPYGYYYCGQGTQVTVSS
high polyreactivity
QVQLVESGGGLVQAGGSLRLSCAASGRIFPHYSMGWYRQAPGKERELVAANSWSGSSTYYADSVKGRFTISRDNAMNTVYLQMNSLKPEDTAVYYCNAVRRGIGYDYGYWGQGTQVTVSS
high polyreactivity

// returns reported polyreactivity (PSR sort gate) for input QVQLVESGGGLVQAGGSLRLSCAASGFIFSENAMGWYRQAPGKERELVAAISDGGGSTYYADSVKGRFTISRDNAKNTVYLQMNSLKPEDTAVYYCNAVYHPKGPSGYGYWGQGTQVTVSS
low polyreactivity

// returns reported polyreactivity (PSR sort gate) for input KVQLVESGGGLVQAGGSLRLSCAASGFIFYYYAMGGYRQAPGKERELVAVLTESGSSTYYADSVKGRFTISRDNAKNSVYLQMNRLKPEDTAVYYCNADFWPYTGKYDYWGQGTQVTVSS
low polyreactivity

// returns reported polyreactivity (PSR sort gate) for input QVQLVESGGGLVQAGGSLSLRCADSGRTLWAYAMGGYREAAGNDRELVAAISASGGSTYYADSVKGRFTISRDIAKNTVYLQMNSLKPADTAVYYCRLVSKGRLYDYCGQGTQVTVSS
high polyreactivity
